# Tested On: CDK2/Cyclin E1 (Homo sapiens, UniProt P24941)
# Assay: CDK2/Cyclin E1 Caliper LabChip EZ Reader mobility shift assay
# Assay type: biochemical
# Set-up: purchased Eurofins 14-475
# Recorded Conditions: read-out: Caliper Assay (CDK2/CCNE1): IC50
Quantity Measured: IC50

Solved entries (count: 5):
{"columns": ["Compound", "Tested On", "Measured"],
 "data": [
  ["C[C@@H](OCC1CCCCC1)[C@H](NC(=O)C1CN(C(=O)c2cnn(Cc3ccccc3)c2)CC12CN(C(=O)[C@H]1CC1(C)C)C2)C(=O)N1CC(C)(C)C1 (some centres unmarked) [I-153 mixture]", "CDK2/Cyclin E1 (Homo sapiens, UniProt P24941)", "≤ 0.01 µM"],
  ["C[C@@H](OCC1CCC2(CCC2)CC1)[C@H](NC(=O)[C@@H]1CN(C(=O)c2cnn(Cc3ccccc3)c2)CC12CN(C(=O)[C@H]1CC1(C)C)C2)C(=O)N1CCC(c2cnc[nH]2)CC1", "CDK2/Cyclin E1 (Homo sapiens, UniProt P24941)", "≤ 0.01 µM"],
  ["CNC(=O)[C@@H](NC(=O)[C@H]1CN(C(=O)c2cn[nH]c2)CC12CN(C(=O)CC1CC1)C2)[C@@H](C)OCc1ccccc1 [I-41B]", "CDK2/Cyclin E1 (Homo sapiens, UniProt P24941)", "> 10 µM"],
  ["CC1(C)C[C@@H]1C(=O)N1CC2(CN(C(=O)c3cnn(Cc4ccccc4)c3)C[C@H]2C(=O)N[C@@H]2CCCN(C(=O)C3CCCCC3)C2)C1", "CDK2/Cyclin E1 (Homo sapiens, UniProt P24941)", "1 to 10 µM"],
  ["CNC(=O)[C@@H](NC(=O)[C@@H]1CN(C(=O)c2cnn(Cc3ccccc3)c2)CC12CN(C(=O)[C@H]1CC1(C)C)C2)[C@@H](C)O [I-88A]", "CDK2/Cyclin E1 (Homo sapiens, UniProt P24941)", "> 10 µM"]
]}

query: Report IC50 for CNC(=O)[C@@H](NC(=O)[C@H]1CN(C(=O)c2cncs2)CC12CN(C(=O)[C@H]1CC1(C)C)C2)[C@@H](C)OCc1ccccc1 [I-24B]
result: > 10 µM

query: # return recorded IC50 for entry `COC[C@H]1CCCN(C(=O)[C@@H](NC(=O)[C@@H]2CN(C(=O)c3cncs3)CC23CN(C(=O)C(C)(C)C2CC2)C3)[C@@H](C)OC[C@H]2CC[C@H](O)CC2)C1`
result: 0.1 to 1 µM

query: Return IC50 (reported value) for this compound: `C[C@@H](OCC1CCCCC1)[C@H](NC(=O)[C@@H]1CN(C(=O)c2cnn(Cc3ccccc3)c2)CC12CN(C(=O)[C@H]1CC1(C)C)C2)C(=O)N1CCC(c2cc[nH]n2)CC1`
result: ≤ 0.01 µM

query: State its IC50 for this compound: CO[C@H]1COCC[C@@H]1NC(=O)[C@@H]1CN(C(=O)c2cnn(Cc3ccccc3)c2)CC12CN(C(=O)[C@H]1CC1(C)C)C2 [I-131A]
result: > 10 µM

query: Read the entry CNC(=O)[C@H](CCCc1ccccc1)NC(=O)[C@@H]1CN(C(=O)c2cnn(Cc3ccccc3)c2)CC12CN(C(=O)[C@H]1CC1(C)C)C2 [I-101A] and write its reported IC50.
result: 0.1 to 1 µM
